Where these numbers come from: paper PMC6143625

Tested on: P. falciparum stage V male gametocytes (male gamete formation)
ASSAY NOTES: P. falciparum dual gamete formation assay (Pf DGFA), male readout (exflagellation), 48 h carry-over format
Assay type: cell-based, Plasmodium falciparum NF54
EXPERIMENTAL SETUP: Plasmodium falciparum, SAR, Fig. 6 and Fig. 7; read-out: Male IC50
Task for the reader: assign each of the following compounds its reported IC50.
Lab book: enter the figure in µM, no units written.

[ask] Fill in IC50 for O=S(=O)(NCC1(O)CCOc2ccccc21)c1ccc(Cl)s1 (centres unmarked) [DDD01028075] tested with P. falciparum stage V male gametocytes (male gamete formation).
[reply] 0.24

[ask] Fill in IC50 for O=C(CCl)Nc1ccccc1F [compound 1522874] tested with P. falciparum stage V male gametocytes (male gamete formation).
[reply] 3.26

[ask] Fill in IC50 for O=S(=O)(NCC1(O)CCOc2ccccc21)c1ccccc1Br (centres unmarked) [DDD01028076] tested with P. falciparum stage V male gametocytes (male gamete formation).
[reply] 0.53

[ask] Fill in IC50 for COc1ccc(NC(=O)CCl)cc1 [compound 31123] tested with P. falciparum stage V male gametocytes (male gamete formation).
[reply] 2.66

----------
Task for the reader: assign each of the following compounds its reported IC50.
Test system: P. falciparum stage V male gametocytes (male gamete formation)
ASSAY NOTES: P. falciparum dual gamete formation assay (Pf DGFA), male readout (exflagellation), 48 h carry-over format
Type: cell-based, Plasmodium falciparum NF54
EXPERIMENTAL SETUP: Plasmodium falciparum, 48 h, dose response retest of primary hits, 48 h incubation; read-out: Male IC50

[ask] Query IC50 for CCc1ccc(C2c3nc[nH]c3CCN2Cc2nccn2CC)nc1 (stereo not drawn)
[reply] > 10 µM

[ask] Query IC50 for Cc1cccnc1CN1CC[C@H](Oc2cccc(F)c2)[C@@](C)(O)C1
[reply] > 10 µM

[ask] Query IC50 for COc1ccc(CNC(Cc2ccsc2)c2ccc(C)cn2)c(OC)c1 (stereo not drawn)
[reply] > 10 µM
